Listed binders paired with reported EC 50 vpac1 (Molar), cell-based cAMP assay
- Experimental Target: T1, VPAC1 receptor (UniProt P32241 31-457, limits assumed)
- T1 sequence (looked up): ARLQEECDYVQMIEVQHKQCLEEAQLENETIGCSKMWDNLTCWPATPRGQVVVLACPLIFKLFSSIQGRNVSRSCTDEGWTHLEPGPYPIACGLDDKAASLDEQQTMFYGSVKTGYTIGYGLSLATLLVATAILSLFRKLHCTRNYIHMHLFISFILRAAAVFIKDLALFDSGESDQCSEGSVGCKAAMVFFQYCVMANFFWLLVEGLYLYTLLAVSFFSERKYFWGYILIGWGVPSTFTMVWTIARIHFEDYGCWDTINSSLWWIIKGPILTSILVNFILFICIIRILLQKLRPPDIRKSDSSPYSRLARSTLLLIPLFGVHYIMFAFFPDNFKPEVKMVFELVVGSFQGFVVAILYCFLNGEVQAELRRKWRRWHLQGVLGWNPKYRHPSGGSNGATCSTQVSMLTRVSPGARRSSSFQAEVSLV
- Measurement Protocol: cell-based or functional assay
Where no end group is shown, it is not given here. [ ]: non-standard residue; d: D form. ACPC = 2-aminocyclopentanecarboxylic acid; β3hT = C[C@@H](O)[C@H](N)CC(=O)O; β3hL = CC(C)C[C@H](N)CC(=O)O; β3hK = NCCCC[C@H](N)CC(=O)O; β3hV = CC(C)[C@H](N)CC(=O)O; β3hD = NC(CC(=O)O)CC(=O)O
Measured Quantity: EC 50 vpac1 (Molar), cell-based cAMP assay (nM)

Binder | Unit Descriptor | Relation Operator | Numeric Readout
HS[β3hD]AVF[β3hT]DNY[β3hT]RLR[β3hK]QLA[β3hV]KKY[β3hL]NAI[β3hL]N (not fully specified (C-terminus); printed as HSdAVFtDNYtRLRkQLAvKKYlNAIlN) [LBT-V107] | nM | > | 1000
H[dF]DA[β3hV]FTDNY[β3hT]RLR[β3hK]QLA[β3hV]KKY[β3hL]NAI[β3hL]N (not fully specified (C-terminus); printed as HfDAvFTDNYtRLRkQLAvKKYlNAIlN) [LBT-V128] | nM | = | 71.2
H[ACPC]DAVFTDNY[β3hT]RLR[β3hK]QLA[β3hV]KKY[β3hL]NAI[β3hL]N (not fully specified (C-terminus); printed as HxDAVFTDNYtRLRkQLAvKKYlNAIlN) [LBT-V102] | nM | = | 5.66
H[ACPC]DA[ACPC]FTDNY[β3hT]RLR[β3hK]QLA[β3hV]KKY[β3hL]NAI[β3hL]N (not fully specified (C-terminus); printed as HxDAxFTDNYtRLRkQLAvKKYlNAIlN) [LBT-V103] | nM | = | 0.357
